- Test system: FXR:RXRa (NR concentration 270 nM, RXRa partner concentration 90 nM)
- TEST NAME: PBM binding z-score (relative to random genomic background probes); higher = stronger binding; sequences stand for … in GC…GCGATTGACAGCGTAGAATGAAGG
Outcome: t for PBM binding z-score of at least 3; f for anything lower.

# MACROMOLECULE SEQUENCE, SYSTEM, CAT
data = [
    ("CGTCAAAGTTGAACTAAGGTAACGTAAAGCACGC", "FXR:RXRa (NR concentration 270 nM, RXRa partner concentration 90 nM)", "f"),
    ("CGTCCTAGGTCAGAGAGGTCAGTGAATGCCGAGT", "FXR:RXRa (NR concentration 270 nM, RXRa partner concentration 90 nM)", "t"),
]

We now examine a further sequence.
Is it the case that TGTGCTAGGTCAGTTGGTCAGCTAACGAGCTGCC has PBM binding z-score reaching or exceeding 3?
f
